B1: HDV Ribozyme (parent)
chain: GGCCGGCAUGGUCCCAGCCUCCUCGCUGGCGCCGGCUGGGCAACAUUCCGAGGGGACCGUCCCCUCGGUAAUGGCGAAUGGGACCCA

Variants of: B1
Assay: self-cleavage, relative activity (ratio to wild type); higher = more cleavage; co-transcriptional
reported.property: self-cleavage
The answer should be a number; do not append a unit.

The following variants have reported results that may help.
> print(dat)
                                   residues  test.value
1  GGCCGGCAUGGUCCCAGCCUCCUCGCUGGCGCCGGCUGGGCAACAUUCCGAGGGGACCGUCCCCUCGGUAAUGGCGAAUCGGACCCC       0.237
2  GGCCGGCAUGGUCCCAGCCUCCUCGCUGGCGCCGGCUGGGCAACAUUCCGAGGGGACCGUCGUCUCGGUAAUGGCGAAUGGGACCCA       0.604
3  GGCCGGCAUGGUCCCAGCCUCCUCGCUGGCGCCGGCUGCGCAACAUUCCGAGGGGACCGUCCCUUCGGUAAUGGCGAAUGGGACCCA       0.224
4  GCCCGGCAUGGUCCCAGCCUCCUCGCUGGAGCCGGCUGGGCAACAUUCCGAGGGGACCGUCCCCUCGGUAAUGGCGAAUGGGACCCA      0.0875
5  GGCCGGCAUGGUCCCAGCCUCCUCGCUGGCGCCGGCUGGGCAACAUUCCGAGGGGACCGUCCCCUCGGUAAUCGCGAAUGGGACACA       0.231
6  GGCCGCCAUGGUCCCAGCCUCCUCGCUGGCGCCGGCUGGGCAACAUUCCGAGGGGACCGUCCCCUCGGUAAUGGCGAAUGCGACCCA       0.185
7  GGCCGGCAUGGUCCCAGCCUCCUCGCAGGCGCCGGAUGGGCAACAUUCCGAGGGGACCGUCCCCUCGGUAAUGGCGAAUGGGACCCA           0
8  GGCCGGCAUGGUCCCAGCCUCCUCGCUGGCGCCGCCUGGGCAACAUUCCGAGGGGACCGUCCCCUCGGUAAUUGCGAAUGGGACCCA       0.181

Looking up `GGCCGGCAUGGUCCCAGCCUCCUCGCUGGCGCCGGCUGGGCAACAUUCCGAGGGGAGCGUCUCCUCGGUAAUGGCGAAUGGGACCCA` , I found its self-cleavage recorded as 1.03

Per the records, this variant ( `GGCCGGCAUGGUCGCAGCCUCCUAGCUGGCGCCGGCUGGGCAACAUUCCGAGGGGACCGUCCCCUCGGUAAUGGCGAAUGGGACCCA` ) has self-cleavage equal to 0.378

GET /value?item= `GGCCGGCAUGGUCCCAGCCUCCUCGCUGGCGCCGGCUGGGCAACAUUCAUAGGGGACCGUCCCCUCGGUAAUGGCGAAUGGGACCCA` &field=self-cleavage returns 0.816

Value of self-cleavage reported for the variant `GGCCGGCAUGGUCCCAGCCUCCUCACUGGCGCCGGCUGGGCAACAUUCCGAGGGGACCGUCCCCUCGGUAACGGCGAAUGGGACCCA` is 0.227

Quick note, self-cleavage for `GGCCGGCAUGGUCCCAGCCUCCUCGCUGGCGCCUGCUGGGAAACAUUCCGAGGGGACCGUCCCCUCGGUAAUGGCGAAUGGGACCCA` landed at 0.133

Documented self-cleavage of `GGCCGGCAUGGUCCCAGCCUCCUCGCUGGCGCCGGCUGGGCAACAUUCCCAGGGGACCGCCCCCUCGGUAAUGGCGAAUGGGACCCA` : 1.13

Notebook: `GGCCGGCAAGGUCCCAGCCUCCUCGCUGGCGCCGGCUGGGCAACAAUCCGAGGGGACCGUCCCCUCGGUAAUGGCGAAUGGGACCCA` , self-cleavage read as 0.743

Summary for this variant, `GGCCGGCAUGGUCCCAGCCUCCUCGCUGGCGCCGGCUGGGCAACAUUCCGAGAGGACAGUCCCCUCGGUAAUGGCGAAUGGGACCCA` : self-cleavage is 0.962

The variant listed as `GGCCGGCAUGGUCCCAGCCUCCUCGCUGGCGCGGGCUGGGCAACAUUCCGGGGGGACCGUCCCCUCGGUAAUGGCGAAUGGGACCCA` has a reported self-cleavage of 0.111

The reported self-cleavage of the variant `GGCCGGCAUGGUCCCAGCCUCCUCGCUGGCGCCGGCUGGGCGACAUUCCGAGGGGACCGUCCCCUCGGUAAUGGCGAAUGGGACCUA` was 0.697

// `GGCCGGCUUGGUUCCAGCCUCCUCGCUGGCGCCGGCUGGGCAACAUUCCGAGGGGACCGUCCCCUCGGUAAUGGCGAAUGGGACCCA` : self-cleavage value = 0.302

self-cleavage in this record for `GGCCGGCAUGGUCCCAGCCUCCUCGCUGGCGCCGGCUGGGCAACAUUCCGAGGGGACCGUUCCCUCGCUAAUGGCGAAUGGGACCCA` : 0.581

Recorded result, `GGCCGGCAUGGUCCCAGCCUCCUAGCUGGCGCCGGCUGGGCAGCAUUCCGAGGGGACCGUCCCCUCGGUAAUGGCGAAUGGGACCCA` , self-cleavage: 0.256

Input `GGCCGGCAUGGUCCCAGCCUCCUCGCUGGCGCCGGCUGGGCAACAUUCCGAGGGGACCGUCCCCUCGGUAAUGGCGAAGGGGAACCA` . Output self-cleavage: 0.38

Given item `GGCCGGCAUGGUCCCAGCCUCCUCGCUGGCGCCGGCUGGGCAUCAUUCCGAGGGGACCGUCCCCCCGGUAAUGGCGAAUGGGACCCA` , the value recorded as its self-cleavage is 0.298
